Sourced from PubChem BioAssay AID1347420

tested system: Sulfhydryl oxidase 1 (Homo sapiens) (UniProt O00391)
Sequence (O00391 whole entry, looked up): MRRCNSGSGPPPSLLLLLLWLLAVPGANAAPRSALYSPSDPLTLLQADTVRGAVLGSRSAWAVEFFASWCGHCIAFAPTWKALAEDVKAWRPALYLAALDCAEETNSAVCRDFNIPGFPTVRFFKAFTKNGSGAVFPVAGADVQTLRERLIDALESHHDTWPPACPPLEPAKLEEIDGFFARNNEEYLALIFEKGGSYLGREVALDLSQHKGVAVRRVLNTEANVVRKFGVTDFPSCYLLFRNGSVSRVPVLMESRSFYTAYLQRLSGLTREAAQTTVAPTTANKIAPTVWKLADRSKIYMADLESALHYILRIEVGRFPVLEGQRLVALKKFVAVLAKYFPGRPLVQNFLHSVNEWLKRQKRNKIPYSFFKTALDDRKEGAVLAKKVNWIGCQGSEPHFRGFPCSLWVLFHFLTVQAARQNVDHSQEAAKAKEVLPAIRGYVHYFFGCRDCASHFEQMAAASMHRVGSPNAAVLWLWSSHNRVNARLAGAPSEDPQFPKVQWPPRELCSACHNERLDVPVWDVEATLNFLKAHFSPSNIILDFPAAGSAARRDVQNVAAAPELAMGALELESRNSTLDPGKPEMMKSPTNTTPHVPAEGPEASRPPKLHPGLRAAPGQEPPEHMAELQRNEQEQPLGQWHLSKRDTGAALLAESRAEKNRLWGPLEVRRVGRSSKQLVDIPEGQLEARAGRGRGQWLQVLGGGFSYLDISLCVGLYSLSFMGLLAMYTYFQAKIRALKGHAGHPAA
assay overview: inhibition of human sulfhydryl oxidase QSOX1 – biochemical, HyperBlu H2O2 luminescence, HTS, primary screen (AID 1347420); further: values above 100% were filed as inconclusive
measurement conditions: recombinant QSOX1, HyperBlu H2O2 luminescence; at 12.5 µM; stronger effect = higher value; active = any value above zero
About 980 (75%) of roughly 1,300 compounds were called active. Another 4% or so got no clear call; they are omitted. The list shows a part of the results.
Lab note: assign the record to one of 1 (active), 0 (inactive)

compound smiles	label value
Cn1cnc2c(NCc3ccccc3)nc(NCCO)nc21	1

Assay result, entry COc1ccccc1N1CCN(CCCCN2C(=O)c3ccccc3C2=O)CC1 — outcome?
1

Assay result, entry COc1ccc(/C=C/C(=O)Nc2ccccc2C(=O)O)cc1OC — outcome?
1

Assay result, entry Cc1cccc(C(=O)NCN2CCN(c3ccccc3C#N)CC2)c1 — outcome?
0

Assay result, entry COc1ccccc1N1CCN(CCCCNC(=O)c2ccc3ccccc3c2)CC1 — outcome?
1

Assay result, entry OC1(c2ccc(Cl)cc2)CCN(Cc2c[nH]c3ccccc23)CC1 — outcome?
1

Assay result, entry CN(C)CCCc1cc(C(=O)Nc2ccc(-c3ccncc3)cc2)ccc1O — outcome?
1

Assay result, entry CC[C@@H](CO)Nc1nc(NCc2ccccc2)c2ncn(C(C)C)c2n1 — outcome?
1

Assay result, entry CCOC(=O)C1=C[C@]2(CC)CCCN3CCc4c(n1c1ccccc41)[C@@H]32 — outcome?
1

====

tested system: Sulfhydryl oxidase 1 (Homo sapiens)
assay overview: inhibition of human sulfhydryl oxidase QSOX1 – biochemical, HyperBlu H2O2 luminescence, HTS, primary screen (AID 1347420); further: values above 100% were filed as inconclusive
measurement conditions: recombinant QSOX1, HyperBlu H2O2 luminescence; at 12.5 µM; stronger effect = higher value; active = any value above zero
Hit rate of the full screen: of about 1,300 compounds, about 980 (75%) were called active. Not shown: some 4% with an inconclusive outcome. The list shows a part of the results.
Lab note: assign the record to one of active, inactive

Study these solved cases before continuing.
compound	label value
C[C@@H](CN1CCC(Cc2ccccc2)CC1)[C@@H](O)c1ccc(O)cc1	active
CCN(CC)CCCC(C)Nc1c2ccc(Cl)cc2nc2ccc(OC)cc12 (stereo unspecified)	inactive
CC(=O)N[C@H](C(=O)O)C(C)(C)SN=O	active
CC1=C(/C=C/C(C)=C/C=C/C(C)=C\C(=O)O)C(C)(C)CCC1	active
O=c1ccc2c(OCCCCc3ccccc3)c3ccoc3cc2o1	active
NC1CCN(c2cccc(Cl)n2)CC1	active
CN(C)CCC(c1ccc(Br)cc1)c1ccccn1 (stereo unspecified)	inactive
CN=C(N)NCCC[C@H](N)C(=O)O	active
CC1=C(/C=C/C(C)=C/C=C/C(C)=C/C(=O)Nc2ccc(O)cc2)C(C)(C)CCC1	active
O=C(O)/C(=C/c1c(C(=O)O)[nH]c2cc(Cl)cc(Cl)c12)c1ccccc1	active

Assay result, entry CO/N=C(\C(=O)N[C@@H]1C(=O)N2C(C(=O)O)=C(COC(C)=O)CS[C@H]12)c1csc(N)n1 — outcome?
active

====

tested system: Sulfhydryl oxidase 1 (Homo sapiens)
assay overview: inhibition of human sulfhydryl oxidase QSOX1 – biochemical, HyperBlu H2O2 luminescence, HTS, primary screen (AID 1347420); further: values above 100% were filed as inconclusive
measurement conditions: recombinant QSOX1, HyperBlu H2O2 luminescence; at 12.5 µM; stronger effect = higher value; active = any value above zero
The campaign covered roughly 1,300 compounds. About 980 (75%) were called active. Another 4% or so got no clear call; they are omitted. Some of the results follow.
property: inhibition (%)
One number for each entry, in %.

For each entry beneath this line, provide reported inhibition.
1. CN1CC(=O)N/C1=N\C(=O)Nc1cccc(Cl)c1
2. CSc1nc(N)c2ncn([C@@H]3O[C+](COP(=O)([O-])OP(=O)(O)O)[C@H](O)C3O)c2n1 (stereo not given in full)

1: -0.6; 2: 26.4

For each entry beneath this line, provide reported inhibition.
1. Nc1ccn([C@@H]2O[C@H](CO)[C@@H](O)C2O)c(=O)n1 (stereo not given in full)
2. CC(=O)Nc1nnc(S(N)(=O)=O)s1
3. CC(C)(C(=O)O)c1ccc(C(O)CCCN2CCC(C(O)(c3ccccc3)c3ccccc3)CC2)cc1 (stereo not given)
4. C#CCN(C)Cc1ccccc1
5. COC1(C2=NCCN2)COc2ccccc2O1 (stereo not given)

1: -7; 2: 14.5; 3: -4.1; 4: -4.3; 5: 2.6

For each entry beneath this line, provide reported inhibition.
1. COc1ccc(/C=C2\COc3ccc(C)cc3C2=O)cc1O
2. CCCCN1CCC(n2c(=O)[nH]c3ccccc32)CC1
3. NC(=O)c1cnccn1
4. CCCCCCCCCCCCCCCCCCNC(=O)OCC(COP(=O)([O-])OCC[n+]1ccsc1)OC (stereo not given)
5. CC(C)(C)c1ccc(C(O)CCCN2CCC(C(O)(c3ccccc3)c3ccccc3)CC2)cc1 (stereo not given)
6. COCCOC(=O)C1=C(C)NC(C)=C(C(=O)OC(C)C)C1c1cccc([N+](=O)[O-])c1 (stereo not given)
7. CC(=O)N[C@H]1[C@H]([C@H](O)[C@H](O)CO)OC(C(=O)O)=C[C@@H]1O

[75.9, 16.3, 6.1, 10.6, 6.1, 16.8, 18.1]

====

tested system: Sulfhydryl oxidase 1 (Homo sapiens)
assay overview: inhibition of human sulfhydryl oxidase QSOX1 – biochemical, HyperBlu H2O2 luminescence, HTS, primary screen (AID 1347420); further: values above 100% were filed as inconclusive
measurement conditions: recombinant QSOX1, HyperBlu H2O2 luminescence; at 12.5 µM; stronger effect = higher value; active = any value above zero
In all, about 1,300 compounds went through this assay and about 980 (75%) were called active. Roughly 4% stayed inconclusive and do not appear here. The list shows a part of the results.
For each of the compounds below, state its inhibition.
Answers are plain numbers, in %.

compound	property	readout units	numeric readout
CNCC[C@H](Oc1ccc(C(F)(F)F)cc1)c1ccccc1	inhibition	%	0.1
O=c1c2ccccc2nc2n1CCc1c-2[nH]c2ccccc12	inhibition	%	5.7
S=C([S-])OC1CC2C[C+]1C1CCCC21 (centres undefined)	inhibition	%	1.4

Consider the compound CC(C)NCC(O)COc1ccc(COCCOC(C)C)cc1 (centres undefined) and give its measured inhibition.
-12.7

====

For each of the compounds below, state its inhibition.
tested system: Sulfhydryl oxidase 1 (Homo sapiens) (UniProt O00391)
assay overview: inhibition of human sulfhydryl oxidase QSOX1 – biochemical, HyperBlu H2O2 luminescence, HTS, primary screen (AID 1347420); further: values above 100% were filed as inconclusive
measurement conditions: recombinant QSOX1, HyperBlu H2O2 luminescence; at 12.5 µM; stronger effect = higher value; active = any value above zero
The whole screen tested about 1,300 compounds, of which about 980 (75%) were called active. Not shown: some 4% with an inconclusive outcome. The list shows a part of the results.
Give bare numbers, in %.

compound	tested system	numeric readout
NC(Cc1cccc(-c2ccccc2CP(=O)(O)O)c1)C(=O)O (stereo not drawn)	Sulfhydryl oxidase 1 (Homo sapiens) (UniProt O00391)	5.3
NC(=O)c1cn(Cc2c(F)cccc2F)nn1	Sulfhydryl oxidase 1 (Homo sapiens) (UniProt O00391)	-7.2
c1cc(CN2CCCCC2)cc(OCCCNc2nc3ccccc3s2)c1	Sulfhydryl oxidase 1 (Homo sapiens) (UniProt O00391)	7.9
CSC(=N)N	Sulfhydryl oxidase 1 (Homo sapiens) (UniProt O00391)	14.1
COc1cc(CC(=O)O)ccc1O	Sulfhydryl oxidase 1 (Homo sapiens) (UniProt O00391)	4.4

For each entry beneath this line, provide reported inhibition.
1. O=C1C(SCCO)=C(SCCO)C(=O)c2ccccc21
2. Cc1ccc(=O)n(-c2ccccc2)c1
3. O=c1[nH]cnc2[nH]ncc12
4. OCc1cc(C(O)CNCCCCCCOCCCCc2ccccc2)ccc1O (stereo not drawn)
5. CC(C)C(=O)Nc1ccc([N+](=O)[O-])c(C(F)(F)F)c1
6. OC[C@H]1NC[C@@H](O)[C@@H]1O
7. OCC1NCC(O)C(O)C1O (stereo not drawn)
8. CCCCCCCCCCC(C)(C)C(=O)Nc1c(OC)cc(OC)cc1OC

[66.7, 2.4, 19.2, 34.4, 4.7, 10.5, 14.4, 15.9]

For each entry beneath this line, provide reported inhibition.
1. CC#CCOC(=O)c1c(C)nc2sc3c(c2c1N)CCC(O)C3 (stereo not drawn)
2. C=Cc1c(C)c2cc3[nH]c(cc4nc(cc5nc(cc1[nH]2)C(C)=C5CCC(=O)O)C(CCC(=O)O)=C4C)c(C)c3C=C
3. Cc1oncc1C(=O)Nc1ccc(C(F)(F)F)cc1
4. CC1CN(S(=O)(=O)c2cccc3cnccc23)CCN1 (stereo not drawn)
5. CC(C)Cn1c(=O)n(C)c(=O)c2[nH]cnc21

1: -4.2; 2: 29.8; 3: -3.1; 4: 4.9; 5: -4.6

====

tested system: Sulfhydryl oxidase 1 (Homo sapiens) (UniProt O00391)
assay overview: inhibition of human sulfhydryl oxidase QSOX1 – biochemical, HyperBlu H2O2 luminescence, HTS, primary screen (AID 1347420); further: values above 100% were filed as inconclusive
measurement conditions: recombinant QSOX1, HyperBlu H2O2 luminescence; at 12.5 µM; stronger effect = higher value; active = any value above zero
The whole screen tested about 1,300 compounds, of which about 980 (75%) were called active. Inconclusive results (about 4%) are left out. This is one part of the list.
For each of the compounds below, state its inhibition.
Answers are plain numbers, in %.

compound	numeric readout
O=C1OC(=O)C2C3CCC(O3)C12 (stereo unspecified)	9.8

For each entry beneath this line, provide reported inhibition.
1. O=C(O)CCCCCCCC(=O)O
2. O=C(O)C1CN(CCCP(=O)(O)O)CCN1 (stereo unspecified)
3. Clc1cccc(Cl)c1NC1=NCCN1

[11.4, 37, 7.2]

For each entry beneath this line, provide reported inhibition.
1. CCOC(=O)c1ncn2c1CN(C)C(=O)c1cc(F)ccc1-2
2. CN(C)CCC=C1c2ccccc2C=Cc2ccccc21
3. O=C1Nc2ccc(I)cc2/C1=C/c1cc(Br)c(O)c(Br)c1
4. NC(N)=NC(N)=Nc1ccccc1
5. CNC[C@H](O)c1cccc(O)c1
6. Nc1cc(Cl)c(NC2=NCCN2)c(Cl)c1
7. CN(C)CCC=C1c2ccccc2CCc2ccccc21

1: 11.8; 2: -6.8; 3: 97.8; 4: 6; 5: 17; 6: 23.9; 7: 23.9
